Tested on: Mus musculus
TEST_DESCRIPTION: Anti-inflammatory activity against murine model of allergic contact dermatitis (mACD) after single oral administration (0.1 mg/kg) (in vivo)
Assay type: functional

{"SAMPLE_SMILES": "CC[C@H](C)C(=O)O[C@H]1C[C@@H](C)C=C2C=C[C@H](C)[C@H](CC[C@@H]3C[C@H](CC(=O)NC)N(Cc4ccc(O)c(OC)c4)C(=O)O3)[C@H]21", "Inhibition": "39%"}
{"SAMPLE_SMILES": "CC[C@H](C)C(=O)O[C@H]1C[C@@H](C)C=C2C=C[C@H](C)[C@H](CC[C@@H]3C[C@H](CC(=O)OC)N(Cc4ccc(C(C)(C)O)cc4)C(=O)O3)[C@H]21", "Inhibition": "12%"}
{"SAMPLE_SMILES": "CC[C@H](C)C(=O)O[C@H]1C[C@@H](C)C=C2C=C[C@H](C)[C@H](CC[C@@H]3C[C@H](CC(=O)NC)N(Cc4ccc5c(c4)OCO5)C(=O)O3)[C@H]21", "Inhibition": "28%"}
{"SAMPLE_SMILES": "CC[C@H](C)C(=O)O[C@H]1C[C@@H](C)C=C2C=C[C@H](C)[C@H](CC[C@@H]3C[C@H](CC(=O)NC)N(CCc4ccc(O)c(OC)c4)C(=O)O3)[C@H]21", "Inhibition": "29%"}
{"SAMPLE_SMILES": "CC[C@H](C)C(=O)O[C@H]1C[C@@H](C)C=C2C=C[C@H](C)[C@H](CC[C@@H]3C[C@H](CC(=O)OC)N(CCc4ccc(O)c(OC)c4)C(=O)O3)[C@H]21", "Inhibition": "9%"}
{"SAMPLE_SMILES": "CC[C@H](C)C(=O)O[C@H]1C[C@@H](C)C=C2C=C[C@H](C)[C@H](CC[C@@H]3C[C@H](CC(=O)NC)N(Cc4ccc(C(C)(C)O)cc4)C(=O)O3)[C@H]21", "Inhibition": "9%"}
{"SAMPLE_SMILES": "CC[C@H](C)C(=O)O[C@H]1C[C@@H](C)C=C2C=C[C@H](C)[C@H](CC[C@@H]3C[C@H](CC(=O)OC)N(Cc4ccc5c(c4)OCO5)C(=O)O3)[C@H]21", "Inhibition": "32%"}
{"SAMPLE_SMILES": "CC[C@H](C)C(=O)O[C@H]1C[C@@H](C)C=C2C=C[C@H](C)[C@H](CC[C@@H]3C[C@H](CC(=O)NC)N(Cc4ccc(C(=O)NC)cc4)C(=O)O3)[C@H]21", "Inhibition": "32%"}
